test: Half-life in human liver microsomes (HLM); format: in vitro ADME; settings: human, human liver microsomes (HLM, HL101), pH 7.4; 1 μM compound, 0.78 mg/mL HLM, 37° C., NADPH
half-life at 1 μM listing for selected compounds.
Answer in h, number only, no unit symbol.

Reference set, count: 5
> print(dat)
                                   compound  experimental.endpoint  reported.value
1    O=C(Nc1cccc2cnccc12)c1ccc(C#CC2CC2)cc1      half-life at 1 μM            0.33
2  CC(C)(C)C#Cc1ccc(C(=O)Nc2ccc3c(c2)OCC(CO)N3)c(Cl)c1 (stereo not drawn)      half-life at 1 μM            1.43
3  Cc1nc2cc(NC(=O)c3ccc(C#CC(F)(F)F)cc3)ccc2s1      half-life at 1 μM            0.03
4  CC(C)(C)C#Cc1ccc(C(=O)Nc2ccc3c(c2)OCCO3)cn1      half-life at 1 μM            1.18
5  Cc1cc(/C=C/C(F)(F)F)ccc1C(=O)Nc1ccc2sc(CO)nc2c1      half-life at 1 μM            3.26

Memo: CC(C)(C)C#Cc1ccc(C(=O)Nc2cccc3cnccc23)cc1 , reported half-life at 1 μM: 0.4

O=C(Nc1cccc2cnccc12)c1ccc(/C=C/C(F)(F)F)cc1F has a reported half-life at 1 μM of 0.58

Reported half-life at 1 μM for CCOc1cc(C(=O)Nc2cccc3cnccc23)ccc1C#CC(C)(C)C was 0.42

For this compound ( O=C(Nc1ccc2c(c1)OCCO2)c1ccc(/C=C/C(F)(F)F)cc1 ), measured half-life at 1 μM is 1.15

Please fill in: half-life at 1 μM reported for O=C(Nc1cnc2ccccc2c1)c1ccc(C#CC(F)(F)F)cc1 = 0.02

The compound identified as CC(C)(C)C#Cc1ncc(C(=O)Nc2ccc3c(c2)OCCN3)cn1 registered its half-life at 1 μM at 0.3

====

target: VR1 (Homo sapiens); test: Calcium uptake assay, low pH (proton) stimulus; assay type: cell-based; parameters: expressed in transfected cells; host or cells: T-REx HEK 293 (Invitrogen), pcDNA5/TO vector; conditions: HEK293; 0.3 μM compound; low pH agonist; HEK 293 cells expressing hVR1; read-out: Low pH % Inhib. @ 0.3 μM
Sequence (Q8NER1 whole entry): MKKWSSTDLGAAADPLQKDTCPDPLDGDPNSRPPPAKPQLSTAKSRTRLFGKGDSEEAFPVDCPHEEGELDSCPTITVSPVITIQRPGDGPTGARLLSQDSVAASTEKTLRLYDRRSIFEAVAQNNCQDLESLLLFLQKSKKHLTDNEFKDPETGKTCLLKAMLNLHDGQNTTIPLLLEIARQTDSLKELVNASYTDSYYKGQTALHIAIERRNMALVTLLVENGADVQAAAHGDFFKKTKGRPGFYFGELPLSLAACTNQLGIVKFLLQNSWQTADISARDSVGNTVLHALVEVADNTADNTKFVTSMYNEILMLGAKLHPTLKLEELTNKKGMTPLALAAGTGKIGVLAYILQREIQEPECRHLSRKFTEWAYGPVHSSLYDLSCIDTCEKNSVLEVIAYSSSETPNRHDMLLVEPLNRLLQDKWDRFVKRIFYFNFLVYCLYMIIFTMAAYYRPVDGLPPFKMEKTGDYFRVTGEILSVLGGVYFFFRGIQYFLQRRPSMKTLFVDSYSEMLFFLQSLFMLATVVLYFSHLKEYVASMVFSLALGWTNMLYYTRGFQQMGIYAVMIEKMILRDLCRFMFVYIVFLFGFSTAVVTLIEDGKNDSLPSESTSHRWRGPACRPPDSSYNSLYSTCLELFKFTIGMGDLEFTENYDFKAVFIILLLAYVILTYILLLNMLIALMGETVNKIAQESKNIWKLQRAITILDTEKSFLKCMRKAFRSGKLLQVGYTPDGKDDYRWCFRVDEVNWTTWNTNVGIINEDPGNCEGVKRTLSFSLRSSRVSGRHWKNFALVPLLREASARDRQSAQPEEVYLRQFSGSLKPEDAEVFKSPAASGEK
experimental endpoint: inhibition at 0.3 µM (%)
Write the answer as a number in %, unit excluded.

Sample records with inhibition at 0.3 µM:
> print(dat)
                                   compound  reported.value
1  CC(C)(C)C#Cc1ccc(C(=O)Nc2cccc3cnccc23)cc1             108
2  C/C(=C\c1ccc(C(=O)Nc2ccc3c(c2)OCCO3)cc1)C(F)(F)F              91
3  Cc1nc2cc(NC(=O)c3ccc(C#CC(C)(C)C)cc3)ccc2s1             104
4  Cc1nc2cc(NC(=O)c3ccc(C#CC(C)(C)C)cc3C)ccc2s1              89

Form field inhibition at 0.3 µM, entry Cc1cc(C#CC2CCCC2)ccc1C(=O)Nc1ccc2c(c1)OCC(CO)N2 (stereo not drawn) : 112

Noted for O=C(Nc1cccc2cnccc12)c1ccc(/C=C/C(F)(F)F)cc1 : its inhibition at 0.3 µM reads 106

compound Cn1ccc2cc(NC(=O)c3ccc(C#CC(C)(C)C)cc3)ccc21 , inhibition at 0.3 µM observed: 105

O=C(Nc1ccc2c(c1)OCCN2)c1ccc(C#CC(F)(F)F)cc1 yielded inhibition at 0.3 µM of 185

// sample O=C(Nc1ccc2c(c1)OCC(CO)N2)c1ccc(/C=C/C(F)(F)F)cc1Cl (stereo not drawn) , its inhibition at 0.3 µM was 107

In plain terms, O=C(Nc1ccc2c(c1)OC[C@H](CO)O2)c1ccc(C#CC2CC2)cc1 has a documented inhibition at 0.3 µM of 92

// inhibition at 0.3 µM value for CC(C)(C)C#Cc1cc(F)c(C(=O)Nc2cnc3ccccc3c2)c(F)c1 : 100

Form field inhibition at 0.3 µM, entry CN1CCCc2ccc(NC(=O)c3ccc(C#CC4CC4)cc3)cc21 : 92

Reported inhibition at 0.3 µM of Cc1cc(/C=C/C(F)(F)F)ccc1C(=O)Nc1ccc2c(c1)OC[C@H](CO)N2 : 60

Lookup result for O=C(Nc1ccc2c(c1)OCCN2)c1ccc(/C=C\C(F)(F)F)cc1F ; measured inhibition at 0.3 µM: 29

Recorded inhibition at 0.3 µM (compound Cc1cc(/C=C/C(F)(F)F)ccc1C(=O)Nc1ccc2c(c1)OCC(CO)N2 (stereo not drawn) ): 104

The compound identified as Cn1ccc2ccc(NC(=O)c3ccc(C#CC(C)(C)C)nc3)cc21 registered its inhibition at 0.3 µM at 87

The reported value for Cc1nc2cc(NC(=O)c3ccc(C#CC(F)(F)F)cc3)ccc2s1 in terms of inhibition at 0.3 µM is 101

inhibition at 0.3 µM measured on Cc1cc(C#CC(C)(C)C)ccc1C(=O)Nc1ccc2scnc2c1 = 101
